System: HGGX39 (paediatric high-grade glioma line)
Test: growth inhibition (% activity, log2 RLU normalised to DMSO / staurosporine); higher = more growth inhibition
Details: 33 µM
Measured growth inhibition values are reported for all entries that follow.
Return type: number; implicit unit %.

Prompt line: Find growth inhibition for Clc1ccc(COC(Cn2ccnc2)c2ccc(Cl)cc2Cl)cc1 (stereo not given) on HGGX39 and write it down.
Response line: 9.31

Prompt line: Find growth inhibition for Cc1ccnc(NS(=O)(=O)c2ccc(N)cc2)n1 on HGGX39 and write it down.
Response line: 1.13

###

Test system: HNSC
Assay: growth inhibition (% activity, log2 RLU normalised to DMSO / staurosporine); higher = more growth inhibition
Conditions: 33 µM
RECORDED_ENDPOINT: growth inhibition (%)
Return type: number; implicit unit %.

Worked set:
| COMPOUND | RECORDED_ENDPOINT | MEASUREMENT |
| --- | --- | --- |
| CCC(C)n1ncn(-c2ccc(N3CCN(c4ccc(OCC5COC(Cn6cncn6)(c6ccc(Cl)cc6Cl)O5)cc4)CC3)cc2)c1=O (stereo not given) | growth inhibition | 7.95 |
| CCN1CCN(C(=O)NC(C(=O)NC2C(=O)N3C(C(=O)O)=C(CSc4nnnn4C)CSC23)c2ccc(O)cc2)C(=O)C1=O (stereo not given) | growth inhibition | -1.87 |
| CCOC(=O)c1c(CSc2ccccc2)n(C)c2cc(Br)c(O)c(CN(C)C)c12 | growth inhibition | 53.4 |

Prompt line: Identify the reported growth inhibition for the following entry. CC(=O)Oc1ccccc1C(=O)Nc1ncc([N+](=O)[O-])s1
Response line: 7.17

###

Measured growth inhibition values are reported for all entries that follow.
Tested on: HGGX39
Test: growth inhibition (% activity, log2 RLU normalised to DMSO / staurosporine); higher = more growth inhibition
Details: 33 µM
Return type: number; implicit unit %.

| MOLECULE | READOUT_UNITS | MEASUREMENT |
| --- | --- | --- |
| Cc1c(NC(=O)c2cccnc2)c(=O)n(-c2ccccc2)n1C | % | 2.64 |

Prompt line: Identify the reported growth inhibition for the following entry. Clc1cccc(Cl)c1NC1=NCCN1
Response line: 1.32

Prompt line: Identify the reported growth inhibition for the following entry. O=S(=O)(O)CCS
Response line: -0.445

Prompt line: Identify the reported growth inhibition for the following entry. Cc1cc(=O)[nH]c(=S)[nH]1
Response line: 3.23

Prompt line: Identify the reported growth inhibition for the following entry. NC(=O)c1ncn([C@@H]2O[C@H](CO)[C@@H](O)[C@H]2O)c1N
Response line: 2.08

Prompt line: Identify the reported growth inhibition for the following entry. COc1ccc2cc([C@H](C)C(=O)O)ccc2c1
Response line: -0.312

Prompt line: Identify the reported growth inhibition for the following entry. COc1cc(C(=O)NC2CCCNC2)cc(OC)c1OC (stereo not drawn)
Response line: 2.37

Prompt line: Identify the reported growth inhibition for the following entry. CN(C)CCCN1c2ccccc2CCc2ccc(Cl)cc21
Response line: 7.81

Prompt line: Identify the reported growth inhibition for the following entry. CCCCCCCN(CC)CCCC(O)c1ccc(NS(C)(=O)=O)cc1 (stereo not drawn)
Response line: 2.78

Prompt line: Identify the reported growth inhibition for the following entry. CC1=NN(c2ccccc2)C(=O)C1
Response line: -0.249

Prompt line: Identify the reported growth inhibition for the following entry. COc1cc(Cc2cnc(N)nc2N)cc(OC)c1OC
Response line: 3.59

Prompt line: Identify the reported growth inhibition for the following entry. CN(C)CCN(Cc1cccs1)c1ccccn1
Response line: 5.09

Prompt line: Identify the reported growth inhibition for the following entry. C=CC(=O)N1CCC[C@@H](n2nc(-c3ccc(Oc4ccccc4)cc3)c3c(N)ncnc32)C1
Response line: 1.36

Prompt line: Identify the reported growth inhibition for the following entry. CC(=O)Oc1ccccc1C(=O)Nc1ncc([N+](=O)[O-])s1
Response line: 3.31

Prompt line: Identify the reported growth inhibition for the following entry. C[C@]12C=CC(=O)C=C1CC[C@@H]1[C@@H]2C(=O)C[C@@]2(C)[C@H]1CC[C@]2(O)C(=O)CO
Response line: -1.89

Prompt line: Identify the reported growth inhibition for the following entry. Clc1ccc(CSC(Cn2ccnc2)c2ccc(Cl)cc2Cl)cc1 (stereo not drawn)
Response line: 11.1

Prompt line: Identify the reported growth inhibition for the following entry. C[C@H]1[C@H](NC(=O)/C(=N\OC(C)(C)C(=O)O)c2csc(N)n2)C(=O)N1S(=O)(=O)O
Response line: 2.62

Prompt line: Identify the reported growth inhibition for the following entry. Clc1ccccc1C(c1ccccc1)(c1ccccc1)n1ccnc1
Response line: 16.9

###

Tested on: DIPGX37 (H3.3 K27M diffuse intrinsic pontine glioma line)
Assay: growth inhibition (% activity, log2 RLU normalised to DMSO / staurosporine); higher = more growth inhibition
Details: 33 µM
RECORDED_ENDPOINT: growth inhibition
# number then unit; no other words

Worked set:
| COMPOUND | MEASUREMENT |
| --- | --- |
| CCC[S+]([O-])c1ccc2[nH]c(NC(=O)OC)nc2c1 (stereo unspecified) | 3.5% |
| Oc1c(Br)cc(Br)c2cccnc12 | 0.213% |
| CCC1(c2ccccc2)C(=O)NCNC1=O | 0.454% |
| CCN(CC)CCNC(=O)c1c(C)[nH]c(/C=C2\C(=O)Nc3ccc(F)cc32)c1C | 6.19% |
| CC[C@@H]([C@H](C)O)n1ncn(-c2ccc(N3CCN(c4ccc(OC[C@@H]5CO[C@@](Cn6cncn6)(c6ccc(F)cc6F)C5)cc4)CC3)cc2)c1=O | -0.0907% |
| CC(C)(C)C(=O)OCOP(=O)(COCCn1cnc2c(N)ncnc21)OCOC(=O)C(C)(C)C | 8.8% |
| CC(=O)OCC(=O)[C@@]1(O)CC[C@H]2[C@@H]3CCC4=CC(=O)CC[C@]4(C)[C@H]3C(=O)C[C@@]21C | -1.7% |
| O=C1CCc2ccc(OCCCCN3CCN(c4cccc(Cl)c4Cl)CC3)cc2N1 | 3.86% |
| NC(CO)(CO)CO | 1.73% |
| Clc1ccccc1C(c1ccccc1)(c1ccccc1)n1ccnc1 | 0.662% |

Moving on to the next compound.
Prompt line: Identify the reported growth inhibition for the following entry. CCc1cc2c(cc1CC)CC(NC[C@H](O)c1ccc(O)c3[nH]c(=O)ccc13)C2
Response line: -0.915%

###

Test system: HGGX39
Experiment: growth inhibition (% activity, log2 RLU normalised to DMSO / staurosporine); higher = more growth inhibition
Details: 33 µM
Measured growth inhibition values are reported for all entries that follow.
Return type: number; implicit unit %.

Worked set:
| COMPOUND | TARGET_DESC | RECORDED_ENDPOINT | READOUT_UNITS | MEASUREMENT |
| --- | --- | --- | --- | --- |
| O=C(NC(Cc1cc(=O)[nH]c2ccccc12)C(=O)O)c1ccc(Cl)cc1 (centres undefined) | HGGX39 | growth inhibition | % | 0.192 |
| C=C[C@]1(C)C[C@@H](OC(=O)CS[C@@H]2C[C@H]3CC[C@@H](C2)N3C)[C@]2(C)[C@H](C)CC[C@]3(CCC(=O)[C@H]32)[C@@H](C)[C@@H]1O | HGGX39 | growth inhibition | % | 11.9 |
| N[C@H](Cc1ccccc1)C(=O)O | HGGX39 | growth inhibition | % | 3.77 |
| CC1(C)O[C@@H]2C[C@H]3[C@@H]4C[C@H](F)C5=CC(=O)C=C[C@]5(C)[C@@]4(F)[C@@H](O)C[C@]3(C)[C@]2(C(=O)CO)O1 | HGGX39 | growth inhibition | % | 5.97 |
| CCOc1cc(N)c(Cl)cc1C(=O)NCC1CN(Cc2ccc(F)cc2)CCO1 (centres undefined) | HGGX39 | growth inhibition | % | 1.87 |

Prompt line: Identify the reported growth inhibition for the following entry. OC1(c2ccc(Cl)c(C(F)(F)F)c2)CCN(CCCC(c2ccc(F)cc2)c2ccc(F)cc2)CC1
Response line: 4.1

Prompt line: Identify the reported growth inhibition for the following entry. CN1C(C(=O)Nc2ccccn2)=C(O)c2sc(Cl)cc2S1(=O)=O
Response line: -1.26

Prompt line: Identify the reported growth inhibition for the following entry. O=C(NC[C@H]1CN(c2ccc(N3CCOCC3=O)cc2)C(=O)O1)c1ccc(Cl)s1
Response line: 0.0326

Prompt line: Identify the reported growth inhibition for the following entry. Nc1ccc(S(=O)(=O)Nc2ccccn2)cc1
Response line: 0.333

Prompt line: Identify the reported growth inhibition for the following entry. CNCCc1ccccn1
Response line: 2.84

Prompt line: Identify the reported growth inhibition for the following entry. O=C(O)COCCN1CCN(C(c2ccccc2)c2ccc(Cl)cc2)CC1 (centres undefined)
Response line: 4.64

Prompt line: Identify the reported growth inhibition for the following entry. CCOc1nc2cccc(C(=O)O)c2n1Cc1ccc(-c2ccccc2-c2noc(=O)[nH]2)cc1
Response line: 0.215

Prompt line: Identify the reported growth inhibition for the following entry. C#CCN[C@@H]1CCc2ccccc21
Response line: 3.31

Prompt line: Identify the reported growth inhibition for the following entry. Nc1nc(Cl)nc2c1ncn2[C@@H]1O[C@H](CO)[C@@H](O)[C@@H]1F
Response line: 20

Prompt line: Identify the reported growth inhibition for the following entry. COc1ccccc1OCC(O)CO (centres undefined)
Response line: -1.85

Prompt line: Identify the reported growth inhibition for the following entry. C[C@H](Cn1cnc2c(N)ncnc21)OCP(=O)(O)O
Response line: -1.24

Prompt line: Identify the reported growth inhibition for the following entry. CN(C)[C@@H]1C(O)=C(C(=O)NCN2CCCC2)C(=O)[C@@]2(O)C(O)=C3C(=O)c4c(O)cccc4[C@@](C)(O)[C@H]3C[C@@H]12
Response line: -0.334

Prompt line: Identify the reported growth inhibition for the following entry. Nc1nc2[nH]cc(CCc3ccc(C(=O)N[C@@H](CCC(=O)O)C(=O)O)cc3)c2c(=O)[nH]1
Response line: -0.372

Prompt line: Identify the reported growth inhibition for the following entry. N[C@@H]1CCCCN(c2c(F)cc3c(=O)c(C(=O)O)cn(C4CC4)c3c2Cl)C1
Response line: -1.72

Prompt line: Identify the reported growth inhibition for the following entry. CCOC(=O)C1=C(C)NC(C)=C(C(=O)OC)C1c1cccc(Cl)c1Cl (centres undefined)
Response line: 6.84

Prompt line: Identify the reported growth inhibition for the following entry. S=c1[nH]cnc2nc[nH]c12
Response line: 23.2

Prompt line: Identify the reported growth inhibition for the following entry. O=C1CN2Cc3c(ccc(Cl)c3Cl)N=C2N1
Response line: 3.51

Prompt line: Identify the reported growth inhibition for the following entry. Cc1nc(Nc2ncc(C(=O)Nc3c(C)cccc3Cl)s2)cc(N2CCN(CCO)CC2)n1
Response line: 15.6

All figures here come from the supplement of paper PMC8253809.
